Where these numbers come from: the Human Domainome abundance scans (Beltran et al. 2025)

B1: Ankyrin repeat and SOCS box protein 14, residues 532 to 572; numbered along this chain, A6NK59 (parent)
chain: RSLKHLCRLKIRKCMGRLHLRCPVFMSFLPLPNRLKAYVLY

# Variants of: B1
# PROCEDURE TEXT: abundance fitness (aPCA) (normalised: wild type 0, dead -1); higher = more abundant; growth selection in yeast, the domain comes from the species named
# TEST CONTEXT: Homo sapiens
PARAMETER: abundance fitness
Answer field: number only, no words.

Reference set, count: 5
VARIANT | abundance fitness
C14W | 0.462
L18A | -0.544
A37L | -0.404
P32F | 0.465
L6A | 0.122

q: Give a short answer stating reported abundance fitness for L6P .
a: -0.493

q: Give a short answer stating reported abundance fitness for R1S .
a: -0.39

q: Give a short answer stating reported abundance fitness for I11W .
a: 0.023

q: Give a short answer stating reported abundance fitness for L31P .
a: -0.476

q: Give a short answer stating reported abundance fitness for F25L .
a: 0.19

q: Give a short answer stating reported abundance fitness for L29S .
a: -0.258

q: Give a short answer stating reported abundance fitness for G16N .
a: 0.231

q: Give a short answer stating reported abundance fitness for L6V .
a: -0.183

q: Give a short answer stating reported abundance fitness for L40S .
a: -0.092

q: Give a short answer stating reported abundance fitness for L9G .
a: -0.084
